system: RET (human), P07949 [V804L]; assay: KINOMEscan competition binding; conditions: compound 10.0 µM
Sequence (P07949 whole entry V804L, looked up): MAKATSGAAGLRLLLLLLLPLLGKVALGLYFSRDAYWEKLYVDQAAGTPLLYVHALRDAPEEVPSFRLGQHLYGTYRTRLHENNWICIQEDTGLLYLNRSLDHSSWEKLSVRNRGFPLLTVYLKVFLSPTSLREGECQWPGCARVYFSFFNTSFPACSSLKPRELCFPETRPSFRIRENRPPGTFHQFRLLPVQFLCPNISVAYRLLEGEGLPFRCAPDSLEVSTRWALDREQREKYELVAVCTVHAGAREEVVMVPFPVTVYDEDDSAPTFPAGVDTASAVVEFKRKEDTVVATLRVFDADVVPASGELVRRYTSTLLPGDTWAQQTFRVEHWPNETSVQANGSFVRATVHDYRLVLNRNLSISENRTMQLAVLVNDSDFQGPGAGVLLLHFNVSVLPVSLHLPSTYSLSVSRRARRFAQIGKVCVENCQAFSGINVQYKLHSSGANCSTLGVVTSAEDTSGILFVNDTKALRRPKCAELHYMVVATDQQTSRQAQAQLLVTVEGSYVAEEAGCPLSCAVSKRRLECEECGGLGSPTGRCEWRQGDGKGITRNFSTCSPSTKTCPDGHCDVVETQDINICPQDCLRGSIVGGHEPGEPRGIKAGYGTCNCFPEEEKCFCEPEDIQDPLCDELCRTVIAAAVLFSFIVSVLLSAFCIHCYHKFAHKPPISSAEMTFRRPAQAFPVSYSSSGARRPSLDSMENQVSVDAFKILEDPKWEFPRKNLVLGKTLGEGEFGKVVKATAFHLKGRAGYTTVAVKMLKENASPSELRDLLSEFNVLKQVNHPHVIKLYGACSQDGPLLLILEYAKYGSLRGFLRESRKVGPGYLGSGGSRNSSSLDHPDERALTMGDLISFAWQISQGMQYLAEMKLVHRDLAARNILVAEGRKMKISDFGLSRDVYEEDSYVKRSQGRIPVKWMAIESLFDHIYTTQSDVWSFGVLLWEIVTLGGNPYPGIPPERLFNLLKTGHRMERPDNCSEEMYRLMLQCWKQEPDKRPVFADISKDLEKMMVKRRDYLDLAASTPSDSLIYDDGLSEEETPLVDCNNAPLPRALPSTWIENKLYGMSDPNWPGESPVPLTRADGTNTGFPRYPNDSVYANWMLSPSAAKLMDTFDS
quantityMeasured: kinase still bound, per cent of control (%)
Give your result in % as a bare value.

// worked examples, kinase still bound, per cent of control included
[ask] Fill in the blank: the reported kinase still bound, per cent of control of `CCc1nc(-c2cccc(C)c2)c(-c2ccnc(NC(=O)c3ccccc3)c2)s1` is ____.
[reply] 99

[ask] kinase still bound, per cent of control for `CNC(=O)c1cc(Oc2ccc(NC(=O)Nc3ccc(Cl)c(C(F)(F)F)c3)cc2)ccn1` ?
[reply] 0.1

[ask] Query (compound): `Cc1cn(-c2cc(C(=O)Nc3ccc(C)c(NC(=O)c4ccno4)c3)cc(C(F)(F)F)c2)cn1` ; field requested: kinase still bound, per cent of control
[reply] 100

[ask] Dear colleague, I am looking for the recorded kinase still bound, per cent of control of the following compound: `O=C(NOC[C@H](O)CO)c1ccc(F)c(F)c1Nc1ccc(I)cc1F`
[reply] 93

[ask] Data request, read-out kinase still bound, per cent of control, for `C=CC(=O)Nc1cccc(Oc2nc(Nc3ccc(N4CCN(C)CC4)cc3OC)ncc2Cl)c1`
[reply] 100

Further cases:
[ask] Reported kinase still bound, per cent of control for `COc1cc2c(Nc3ccc(NC(=O)c4ccccc4)cc3)ncnc2cc1OCCCN1CCOCC1` : what is it?
[reply] 9.6

[ask] Entry `N#Cc1c(NC(=O)c2cccc3ccccc23)sc2c1CCCC2` : reported kinase still bound, per cent of control = ?
[reply] 90

[ask] Return reported kinase still bound, per cent of control; argument: `COc1cc(N2CCC(C(N)=O)CC2)ccc1Nc1nc(N)c(Cl)c(Nc2ccccc2S(=O)(=O)C(C)C)n1`
[reply] 100
